Tested on: Pasteurella multocida
MEASUREMENT PROTOCOL: Pasteurella infection in one-day old chicks
Assay type: in vivo
CONDITION NOTES: subcutaneous, 30 mg/kg × 2, 1 and 4 hours post-challenge
OUTCOME MEASURE: Number of Deaths/Number Treated

Example entries begin here.
COMPOUND	Number of Deaths/Number Treated
CCC1CC(C)C(=O)C=CC(C)=CC(COc2cccnc2)C(CC)OC(=O)CC(O)C(C)C1OC1OC(C)C(O)C(N(C)C)C1O (centres unmarked) [Compound 46, 23-O-(3-Pyridyl)-20-deoxy-20-dihydro-OMT]	10/10
CCC1OC(=O)CC(O)C(C)C(OC2OC(C)C(O)C(N(C)C)C2O)C(CCNCCc2ccccc2)CC(C)C(=O)C=CC(C)=CC1CO (centres unmarked)	1/10
CCC1CC(C)C(=O)C=CC(C)=CC(CN2CCCCCCC2)C(CC)OC(=O)CC(O)C(C)C1OC1OC(C)C(O)C(N(C)C)C1O (centres unmarked)	8/10
CCC1OC(=O)CC(O)C(C)C(OC2OC(C)C(O)C(N(C)C)C2O)C(CCOc2ccccc2)CC(C)C(=O)C=CC(C)=CC1CN1CCCCCCC1 (centres unmarked)	10/10
CCC1CC(C)C(=O)C=CC(C)=CC(CN2CCC(O)CC2)C(CC)OC(=O)CC(O)C(C)C1OC1OC(C)C(O)C(N(C)C)C1O (centres unmarked)	10/10

Item CCC1OC(=O)CC(O)C(C)C(OC2OC(C)C(O)C(N(C)C)C2O)C(CCOC(=O)Cc2ccccc2)CC(C)C(=O)C=CC(C)=CC1COC(=O)Cc1ccccc1 (centres unmarked) [Compound 30, 20,23-Di-O-Phenylacetyl-20-dihydro-OMT] has what recorded Number of Deaths/Number Treated?
9/10

Now the compound CCC1OC(=O)CC(O)C(C)C(OC2OC(C)C(O)C(N(C)C)C2O)C(CCNCc2ccccc2)CC(C)C(=O)C=CC(C)=CC1CO (centres unmarked) [Compound 4, 20-N-Benzylamino-20-deoxy-20-dihydro-OMT]
1/10

Now the compound CCC1OC(=O)CC(O)C(C)C(OC2OC(C)C(O)C(N(C)C)C2O)C(CCOC(=O)Cc2ccccc2)CC(C)C(=O)C=CC(C)=CC1CO (centres unmarked) [Compound 1, 20-O-Phenylacetyl-20-dihydro-OMT]
9/10

----------
Listing of recorded MIC by entry.
Test system: Staphylococcus aureus
MEASUREMENT PROTOCOL: MIC, conventional broth-dilution microtiter test
Assay type: cell-based
CONDITION NOTES: broth-dilution microtiter, read-out: MIC
Quick note: give the figure in µg/mL, leave out the unit.

Example entries begin here.
COMPOUND	ASSAY SYSTEM	UNIT TEXT	REPORTED RESULT
CCC1OC(=O)CC(O)C(C)C(OC2OC(C)C(O)C(N(C)C)C2O)C(CCN2C(=O)c3ccccc3C2=O)CC(C)C(=O)C=CC(C)=CC1CO (stereo not shown) [Compound 6, 20-N-Phthalimido-20-deoxy-20-dihydro-OMT]	Staphylococcus aureus	µg/mL	25
CCC1OC(=O)CC(O)C(C)C(OC2OC(C)C(O)C(N(C)C)C2O)C(CCN2C(=O)c3ccccc3C2=O)CC(C)C(=O)C=CC(C)=CC1C (stereo not shown)	Staphylococcus aureus	µg/mL	25

Item CCC1CC(C)C(=O)C=CC(C)=CC(COc2cccc(OC)c2OC)C(CC)OC(=O)CC(O)C(C)C1OC1OC(C)C(O)C(N(C)C)C1O (stereo not shown) has what recorded MIC?
3.12

----------
Test system: Escherichia coli EC14
MEASUREMENT PROTOCOL: MIC, standard agar-dilution assay
Format: cell-based
CONDITION NOTES: Escherichia coli, EC14
Listing of recorded MIC by entry.

Example entries begin here.
MOLECULE	MIC
CCC1OC(=O)CC(O)C(C)C(OC2OC(C)C(O)C(N(C)C)C2O)C(CCOC(=O)Cc2ccccc2)CC(C)C(=O)C=CC(C)=CC1COC(=O)Cc1ccccc1 (stereo not drawn) [Compound 30, 20,23-Di-O-Phenylacetyl-20-dihydro-OMT]	> 128 µg/mL
CCC1OC(=O)CC(O)C(C)C(OC2OC(C)C(OC(C)=O)C(N(C)C)C2OC(C)=O)C(CCOC(=O)Cc2ccccc2)CC(C)C(=O)C=CC(C)=CC1COC(=O)Cc1ccccc1 (stereo not drawn) [Compound 55]	> 128 µg/mL

Item CCC1OC(=O)CC(O)C(C)C(OC2OC(C)C(OC(C)=O)C(N(C)C)C2OC(C)=O)C(CCOC(=O)Cc2ccccc2)CC(C)C(=O)C=CC(C)=CC1CO (stereo not drawn) [Compound 54] has what recorded MIC?
> 128 µg/mL

----------
Tested on: Streptococcus pneumoniae Park I
MEASUREMENT PROTOCOL: MIC, standard agar-dilution assay
Format: cell-based
CONDITION NOTES: Streptococcus pneumoniae
OUTCOME MEASURE: MIC
For clarity, give the value followed by its unit.

Example entries begin here.
COMPOUND	OUTCOME MEASURE	REPORTED RESULT
CCC1OC(=O)CC(O)C(C)C(OC2OC(C)C(OC3CC(C)(O)C(O)C(C)O3)C(N(C)C)C2O)C(CCNCCc2ccccc2)CC(C)C(=O)C=CC(C)=CC1CO (stereo not shown)	MIC	4 µg/mL
CCC1OC(=O)CC(O)C(C)C(OC2OC(C)C(O)C(N(C)C)C2O)C(CCN(C)C)CC(C)C(=O)C=CC(C)=CC1CO (stereo not shown)	MIC	32 µg/mL
CCC1OC(=O)CC(O)C(C)C(OC2OC(C)C(O)C(N(C)C)C2O)C(CCOC(=O)Cc2ccccc2)CC(C)C(=O)C=CC(C)=CC1CO (stereo not shown) [Compound 1, 20-O-Phenylacetyl-20-dihydro-OMT]	MIC	0.5 µg/mL

Item CCC1OC(=O)CC(O)C(C)C(OC2OC(C)C(O)C(N(C)C)C2O)C(CCO)CC(C)C(=O)C=CC(C)=CC1COC(=O)CCc1ccccc1 (stereo not shown) [Compound 52, 20-Dihydro-23-O-phenylpropionyl-OMT] has what recorded MIC?
0.25 µg/mL

Now the compound CCC1CC(C)C(=O)C=CC(C)=CC(COc2cccnc2)C(CC)OC(=O)CC(O)C(C)C1OC1OC(C)C(O)C(N(C)C)C1O (stereo not shown) [Compound 46, 23-O-(3-Pyridyl)-20-deoxy-20-dihydro-OMT]
0.5 µg/mL

Now the compound CCC1CC(C)C(=O)C=CC(C)=CC(COc2cccc(N(C)C)c2)C(CC)OC(=O)CC(O)C(C)C1OC1OC(C)C(O)C(N(C)C)C1O (stereo not shown)
0.5 µg/mL

Now the compound CCC1OC(=O)CC(O)C(C)C(OC2OC(C)C(OC3CC(C)(O)C(O)C(C)O3)C(N(C)C)C2O)C(CCNCc2ccccc2)CC(C)C(=O)C=CC(C)=CC1C (stereo not shown)
1 µg/mL

----------
Listing of recorded MIC by entry.
System: Pasteurella hemolytica 23C
MEASUREMENT PROTOCOL: MIC, conventional broth-dilution microtiter test
Assay type: cell-based
CONDITION NOTES: broth-dilution microtiter; Pasteurella hemolytica 23C; read-out: MIC
Quick note: give the figure in µg/mL, leave out the unit.

Example entries begin here.
COMPOUND	REPORTED RESULT
CCC1CC(C)C(=O)C=CC(C)=CC(COc2cccnc2)C(CC)OC(=O)CC(O)C(C)C1OC1OC(C)C(O)C(N(C)C)C1O (stereo not shown) [Compound 46, 23-O-(3-Pyridyl)-20-deoxy-20-dihydro-OMT]	50
CCC1OC(=O)CC(O)C(C)C(OC2OC(C)C(O)C(N(C)C)C2O)C(CCOc2ccccc2)CC(C)C(=O)C=CC(C)=CC1COc1ccccc1 (stereo not shown) [Compound 32, 20,23-Di-O-phenyl-20-dihydro-OMT]	12.5

Kindly state the measured MIC obtained for CCC1CC(C)C(=O)C=CC(C)=CC(CN2CCCCCCC2)C(CC)OC(=O)CC(O)C(C)C1OC1OC(C)C(OC(C)=O)C(N(C)C)C1OC(C)=O (stereo not shown) with Pasteurella hemolytica 23C.
1.56

Now the compound CCC1OC(=O)CC(O)C(C)C(OC2OC(C)C(O)C(N(C)C)C2O)C(CCNC)CC(C)C(=O)C=CC(C)=CC1CO (stereo not shown) [Compound 3, 20-N-Methylamino-20-deoxy-20-dihydro-OMT]
50

Now the compound CCC1OC(=O)CC(O)C(C)C(OC2OC(C)C(O)C(N(C)C)C2O)C(CCN2C(=O)c3ccccc3C2=O)CC(C)C(=O)C=CC(C)=CC1C (stereo not shown)
50

----------
Test system: Pasteurella hemolytica 23C
MEASUREMENT PROTOCOL: MIC, conventional broth-dilution microtiter test
Type: cell-based
CONDITION NOTES: broth-dilution microtiter; Pasteurella hemolytica 23C; read-out: MIC
OUTCOME MEASURE: MIC (µg/mL)
Quick note: give the figure in µg/mL, leave out the unit.

Example entries begin here.
COMPOUND	ASSAY SYSTEM	UNIT TEXT	REPORTED RESULT
CCC1OC(=O)CC(O)C(C)C(OC2OC(C)C(O)C(N(C)C)C2O)C(CCNCc2ccccc2)CC(C)C(=O)C=CC(C)=CC1CO (centres unmarked) [Compound 4, 20-N-Benzylamino-20-deoxy-20-dihydro-OMT]	Pasteurella hemolytica 23C	µg/mL	6.25
CCC1OC(=O)CC(O)C(C)C(OC2OC(C)C(O)C(N(C)C)C2O)C(CCOc2ccccc2)CC(C)C(=O)C=CC(C)=CC1COC(=O)CCc1ccccc1 (centres unmarked)	Pasteurella hemolytica 23C	µg/mL	25

Could you now look at the following compound, please?
Item CCC1OC(=O)CC(O)C(C)C(OC2OC(C)C(O)C(N(C)C)C2O)C(CCN(C)C)CC(C)C(=O)C=CC(C)=CC1CO (centres unmarked) has what recorded MIC?
50

src = patent US4468511A
